target: C-X-C chemokine receptor type 4 (Homo sapiens, UniProt P61073); experiment: Displacement of [125I]-CPCR4 from CXCR4 receptor in human Jurkat cells after 2 hrs by gamma counting
Sequence (P61073 whole entry): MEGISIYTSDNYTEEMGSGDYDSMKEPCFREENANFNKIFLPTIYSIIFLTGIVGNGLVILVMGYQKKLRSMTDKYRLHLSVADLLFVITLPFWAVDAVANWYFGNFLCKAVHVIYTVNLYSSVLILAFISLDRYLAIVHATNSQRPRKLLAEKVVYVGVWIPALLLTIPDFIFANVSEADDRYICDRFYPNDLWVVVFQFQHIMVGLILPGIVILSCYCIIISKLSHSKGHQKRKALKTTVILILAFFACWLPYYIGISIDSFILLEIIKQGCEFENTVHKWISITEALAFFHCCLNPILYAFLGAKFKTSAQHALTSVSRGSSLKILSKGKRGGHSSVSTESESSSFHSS
*1 amine or outer side, *2 acyl side, *3 side chain or, on linkers, in order; H or OH if unused. Where a SMILES comes first, the peptide text is derived from it. Bridges are numbered along the chain shown (N, C = ends). Roman numbers before positions name the chains, in order. [ ]: non-standard residue; d: D form. 2Nal = N[C@@H](Cc1ccc2ccccc2c1)C(=O)O; Suberoyl = O=C(CCCCCCC(=O)[*:2])[*:1]; dNMeOrn = CN[C@H](CCCN)C(=O)O
QUANTITY: pIC50
Recall that pIC50 is obtained by taking minus log10 of the concentration measured in molar.

query: What measured pIC50 is associated with CN1C(=O)[C@@H](Cc2ccc(O)cc2)NC(=O)CNC(=O)[C@H](Cc2ccc3ccccc3c2)NC(=O)[C@H](CCCNC(=N)N)NC(=O)[C@H]1CCCNC(=O)CCCCCCC(=O)NCCC[C@@H]1C(=O)N[C@@H](CCCNC(=N)N)C(=O)N[C@@H](Cc2ccc3ccccc3c2)C(=O)NCC(=O)N[C@H](Cc2ccc(O)cc2)C(=O)N1C (I: cyclo([2Nal]G[dY][dNMeOrn]R) / II: cyclo([2Nal]G[dY][dNMeOrn]R); linker I:4-II:4 via Suberoyl) on C-X-C chemokine receptor type 4 (Homo sapiens, UniProt P61073)?
result: 8.52

Could you now look at the following compound, please?
query: What measured pIC50 is associated with `CN1C(=O)[C@@H](Cc2ccc(O)cc2)NC(=O)CNC(=O)[C@H](Cc2ccc3ccccc3c2)NC(=O)[C@H](CCCNC(=N)N)NC(=O)[C@H]1CCCNC(=O)CNC(=O)C[C@H](NC(=O)CCCCCNC(=O)CN1CCN(CC(=O)O)CCN(CC(=O)O)CCN(CC(=O)O)CC1)C(=O)NCC(=O)NCCC[C@@H]1C(=O)N[C@@H](CCCNC(=N)N)C(=O)N[C@@H](Cc2ccc3ccccc3c2)C(=O)NCC(=O)N[C@H](Cc2ccc(O)cc2)C(=O)N1C` on C-X-C chemokine receptor type 4 (Homo sapiens, UniProt P61073)?
result: 7.41
